target: T1, human vascular endothelial growth factor receptor-2 Fc chimera (KDR-Fc) (human, UniProt P35968 20-764); assay: radioactive equilibrium binding, 1 nM KDR-Fc
T1 construct: range 1-764; Purchased from R&D Systems; also called hKDR; human VEGF-R2-Fc; not shown: human IgG1 Fc
T1 sequence (P35968 20-764 limits assumed, change not shown, form in doubt): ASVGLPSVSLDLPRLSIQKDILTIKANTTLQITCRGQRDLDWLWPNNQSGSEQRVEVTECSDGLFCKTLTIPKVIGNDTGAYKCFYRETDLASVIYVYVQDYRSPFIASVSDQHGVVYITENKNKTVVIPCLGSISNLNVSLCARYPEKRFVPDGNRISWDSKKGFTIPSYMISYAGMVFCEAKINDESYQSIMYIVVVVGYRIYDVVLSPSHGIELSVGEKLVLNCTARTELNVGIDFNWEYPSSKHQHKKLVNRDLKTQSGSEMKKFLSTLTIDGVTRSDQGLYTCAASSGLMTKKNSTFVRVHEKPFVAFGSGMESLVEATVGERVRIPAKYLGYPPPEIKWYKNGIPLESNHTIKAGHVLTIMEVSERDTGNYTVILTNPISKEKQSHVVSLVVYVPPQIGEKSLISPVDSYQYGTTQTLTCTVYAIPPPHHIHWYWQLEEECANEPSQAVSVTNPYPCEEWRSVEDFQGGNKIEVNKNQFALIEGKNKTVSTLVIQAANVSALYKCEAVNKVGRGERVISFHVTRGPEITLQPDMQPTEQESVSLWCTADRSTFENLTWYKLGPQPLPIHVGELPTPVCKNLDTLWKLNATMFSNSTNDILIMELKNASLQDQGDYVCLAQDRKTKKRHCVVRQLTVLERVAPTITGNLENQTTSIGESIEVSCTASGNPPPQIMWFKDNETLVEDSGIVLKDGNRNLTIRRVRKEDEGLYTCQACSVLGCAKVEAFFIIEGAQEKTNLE
Measured Endpoint: Binding to 1 nM KDR, % (%)

[
  {
    "Binder": "3′E4 PR4 (designed binder, in vitro translated) EVVAATPTSLLISWRHPHFPTRYYRITYGETGGNSPVQEFTVPLQPPTATISGLKPGVDYTITVYAVTVGPNDRELIVPISINYRT",
    "Binding to 1 nM KDR, % [%]": 12
  },
  {
    "Binder": "3C5 PR3 (designed binder, in vitro translated) EVVAATPTSLLISWRHPHFPTRYYRITYGETGGNSPVQEFTVPLQPPTATISGLKPGVDYTITVYAVTGDHNDRELMTPISINYRT",
    "Binding to 1 nM KDR, % [%]": 12
  },
  {
    "Binder": "3F5 PR3 (designed binder, in vitro translated) EVVAATPTSLLISWRHPHFPTRYYRITYGETGGNSPVQEFTVPLQPPTATISGLKPGVDYTITVYAVTVAYNEHELYTPISINYRT",
    "Binding to 1 nM KDR, % [%]": 11
  },
  {
    "Binder": "3D11 PR3 (designed binder, in vitro translated) EVVAATPTSLLISWRHPHFPTRYYRITYGETGGNSPVQEFTVPLQPPTATISGLKPGVDYTITVYAVTLGQENQELITPISINYRT",
    "Binding to 1 nM KDR, % [%]": 10
  },
  {
    "Binder": "1′DelA4 PR4 (designed binder, in vitro translated) EVVAATPTSLLISWRHPHFPTRYYRITYGETGGNSPVQEFTVPLQPPTATISGLKPGVDYTITGYAVTVAQNDHELFTPISINYRT",
    "Binding to 1 nM KDR, % [%]": 13
  }
]
